B1: Ameloblastin (Homo sapiens), Q9NP70 (parent)
chain: MSASKIPLFKMKDLILILCLLEMSFAVPFFPQQSGTPGMASLSLETMRQLGSLQRLNTLSQYSRYGFGKSFNSLWMHGLLPPHSSLPWMRPREHETQQYEYSLPVHPPPLPSQPSLKPQQPGLKPFLQSAAATTNQATALKEALQPPIHLGHLPLQEGELPLVQQQVAPSDKPPKPELPGVDFADPQGPSLPGMDFPDPQGPSLPGLDFADPQGSTIFQIARLISHGPMPQNKQSPLYPGMLYVPFGANQLNAPARLGIMSSEEVAGGREDPMAYGAMFPGFGGMRPGFEGMPHNPAMGGDFTLEFDSPVAATKGPENEEGGAQGSPMPEANPDNLENPAFLTELEPAPHAGLLALPKDDIPGLPRSPSGKMKGLPSVTPAAADPLMTPELADVYRTYDADMTTSVDFQEEATMDTTMAPNSLQTSMPGNKAQEPEMMHDAWHFQEP

Variants of: B1
testConditions: with fa20c_human FAM20C
measureName: effect of a mutation on the interaction

sequencechange=S41A measurename="effect of a mutation on the interaction" testvalue="with no effect"
sequencechange=S34A measurename="effect of a mutation on the interaction" testvalue="with no effect"
sequencechange=T36A measurename="effect of a mutation on the interaction" testvalue="with no effect"
sequencechange=T46A measurename="effect of a mutation on the interaction" testvalue="with no effect"
